Assay: Acute toxicity test
Details: male, mouse, in vivo, iv, ddY mice, death rate up to 24 hours after administration
reported endpoint: LD50 at 24 h
Answer with the figure and its unit, nothing else.

{"columns": ["compound", "reported endpoint", "observed measurement"],
 "data": [
  ["Cc1cc(N)c(C)c(C)c1OC[C@@H](O)CN1CCN(c2ccc(Cc3ccc(F)cc3)cc2)CC1 [Compound 40]", "LD50 at 24 h", "49.1 mg/kg"],
  ["Cc1cc(OC[C@@H](O)CN2CCC(c3ccc(Oc4ccccc4)cc3)CC2)c(C)c(C)c1N [Compound 26]", "LD50 at 24 h", "41 mg/kg"],
  ["COc1ccc(N)cc1OC[C@@H](O)CN1CCC(c2ccc(Oc3ccccc3)cc2)CC1 [Compound 41]", "LD50 at 24 h", "36.7 mg/kg"]
]}

Proceed to the following item.
Inquiry: Give its LD50 at 24 h value. Item: Cc1cc(OC[C@@H](O)CN2CCN(c3ccc(Cc4ccc(F)cc4)cc3)CC2)c(C)c(C)c1N [Compound 28]
Reply text: 47.3 mg/kg

---

Target: Dopamine D2 receptor (Rattus norvegicus, UniProt P61169)
Construct: membrane fraction prepared from the striatum of Wistar male rats
Sequence (P61169 whole entry): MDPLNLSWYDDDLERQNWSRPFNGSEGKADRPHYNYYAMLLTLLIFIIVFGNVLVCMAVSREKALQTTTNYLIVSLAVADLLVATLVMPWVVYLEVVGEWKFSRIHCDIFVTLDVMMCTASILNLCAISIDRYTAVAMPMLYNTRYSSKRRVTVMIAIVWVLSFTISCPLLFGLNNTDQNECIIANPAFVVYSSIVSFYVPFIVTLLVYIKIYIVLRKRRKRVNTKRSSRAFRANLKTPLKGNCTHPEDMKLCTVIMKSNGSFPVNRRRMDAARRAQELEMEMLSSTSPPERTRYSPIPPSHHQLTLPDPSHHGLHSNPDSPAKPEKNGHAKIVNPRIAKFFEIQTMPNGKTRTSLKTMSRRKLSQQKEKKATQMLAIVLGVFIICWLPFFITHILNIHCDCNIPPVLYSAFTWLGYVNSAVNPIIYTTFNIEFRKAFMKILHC
Assay: Dopamine D2 receptor blocking action ([^3H] raclopride, striatum membrane fraction)
Conditions: 1.0 nM [^3H] raclopride, 25° C., 1 hour
reported endpoint: IC50 (µM)
Give bare numbers, in µM.

Record excerpt, results attached:
{"columns": ["compound", "u", "IC50"],
 "data": [
  ["Cc1cc(OC[C@@H](O)CN2CCC(c3ccc(Cc4ccc(F)cc4)cc3)CC2)c(C)c(C)c1N", "µM", 6.3],
  ["Cc1cc(OC[C@@H](O)CN2CCC(c3ccc(Oc4ccccc4)cc3)CC2)c(C)c(C)c1N", "µM", 5.6],
  ["Cc1cc(N)c(C)c(C)c1OC[C@@H](O)CN1CCN(c2ccc(Cc3ccc(F)cc3)cc2)CC1", "µM", 12],
  ["COc1ccc(N)cc1OC[C@@H](O)CN1CCC(c2ccc(Oc3ccccc3)cc2)CC1", "µM", 11],
  ["Cc1cc(OC[C@@H](O)CN2CCN(c3ccc(Cc4ccc(F)cc4)cc3)CC2)c(C)c(C)c1N", "µM", 12]
]}

Pending compound:
Inquiry: Would you mind telling me what IC50 value was observed for COc1ccc(NCC(O)CN2CCC(c3ccc(Oc4ccccc4)cc3)CC2)c(C)c1 (stereo not drawn) ?
Reply text: 11

---

Exercise: for every item that follows, state its recorded IC50.
Test system: T-type Ca^2+ channel
Test: T-type calcium channel inhibitory effect (whole-cell patch clamp, hippocampal CA1 pyramidal cells)
Assay type: cell-based, Wistar rats
Conditions: rat hippocampal CA1 pyramidal cells; peak current after 1 minute of application
Answers are plain numbers, in µM.

Below, 3 compounds whose answers are already recorded.
{"columns": ["compound", "tested system", "reported endpoint", "u", "observed measurement"],
 "data": [
  ["COc1ccc(NCC(O)CN2CCC(c3ccc(Oc4ccccc4)cc3)CC2)c(C)c1 (stereo not shown)", "T-type Ca^2+ channel", "IC50", "µM", 2.2],
  ["Cc1cc(OC[C@@H](O)CN2CCN(c3ccc(Cc4ccc(F)cc4)cc3)CC2)c(C)c(C)c1N", "T-type Ca^2+ channel", "IC50", "µM", 3],
  ["Cc1cc(OC[C@@H](O)CN2CCC(c3ccc(Oc4ccccc4)cc3)CC2)c(C)c(C)c1N", "T-type Ca^2+ channel", "IC50", "µM", 3.4]
]}

# evaluate next
Inquiry: Fill blank: measured IC50 of the compound `COc1ccc(N)cc1OC[C@@H](O)CN1CCC(c2ccc(Oc3ccccc3)cc2)CC1` is ____.
Reply text: 4
